study-target: Bifunctional dihydrofolate reductase-thymidylate synthase (Toxoplasma gondii)
Sequence (Q07422 whole entry): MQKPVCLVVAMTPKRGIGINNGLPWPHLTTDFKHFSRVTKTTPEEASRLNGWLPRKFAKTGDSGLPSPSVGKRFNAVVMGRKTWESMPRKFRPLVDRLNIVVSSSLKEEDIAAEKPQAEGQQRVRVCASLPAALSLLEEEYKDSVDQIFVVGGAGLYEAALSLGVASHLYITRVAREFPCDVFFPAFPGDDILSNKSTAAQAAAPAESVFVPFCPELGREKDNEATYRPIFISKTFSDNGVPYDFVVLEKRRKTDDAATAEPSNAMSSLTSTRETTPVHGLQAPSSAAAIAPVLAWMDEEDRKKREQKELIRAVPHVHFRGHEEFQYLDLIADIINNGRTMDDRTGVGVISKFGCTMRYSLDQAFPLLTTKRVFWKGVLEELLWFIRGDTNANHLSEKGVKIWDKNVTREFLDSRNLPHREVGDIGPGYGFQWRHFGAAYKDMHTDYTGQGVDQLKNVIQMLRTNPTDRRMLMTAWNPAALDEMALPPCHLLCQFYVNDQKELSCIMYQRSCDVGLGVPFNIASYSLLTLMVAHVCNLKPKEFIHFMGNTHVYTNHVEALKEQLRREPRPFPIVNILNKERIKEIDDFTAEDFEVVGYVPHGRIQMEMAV
procedure-summary: Inhibition of Toxoplasma gondii TS-DHFR expressed in Escherichia coli BL21 preincubated for 15 mins followed by addition of DHF as substrate and NADPH measured after 60 mins by resazurin/diaphorase coupled assay
Documented IC50 across a set of molecules
value-kind: IC50

smiles_notation=COc1ccc(-c2c[nH]c3nc(N)nc(OC(C)C)c23)cc1C(F)(F)F study_target="Bifunctional dihydrofolate reductase-thymidylate synthase (Toxoplasma gondii)" value_kind=IC50 result_value="> 10000 nM"
smiles_notation=Cc1nc(N)nc(N)c1C(=O)N1CCN(c2cccc(-c3cccc(C#N)c3)c2)CC1 study_target="Bifunctional dihydrofolate reductase-thymidylate synthase (Toxoplasma gondii)" value_kind=IC50 result_value="3000 nM"
smiles_notation=Nc1ncc(Cn2ccc3c(-c4ccc(C(F)(F)F)cc4)cccc32)c(N)n1 study_target="Bifunctional dihydrofolate reductase-thymidylate synthase (Toxoplasma gondii)" value_kind=IC50 result_value="2700 nM"
smiles_notation=Nc1nc(Cl)c2cc(-c3cccc(Cl)c3)[nH]c2n1 study_target="Bifunctional dihydrofolate reductase-thymidylate synthase (Toxoplasma gondii)" value_kind=IC50 result_value="> 10000 nM"
smiles_notation=Nc1nc(N)c(-c2c[nH]c3ccccc23)c(C2CC2)n1 study_target="Bifunctional dihydrofolate reductase-thymidylate synthase (Toxoplasma gondii)" value_kind=IC50 result_value="910 nM"
smiles_notation=Nc1ncc(Cn2cc(-c3cccc(Cl)c3)c3cccnc32)c(N)n1 study_target="Bifunctional dihydrofolate reductase-thymidylate synthase (Toxoplasma gondii)" value_kind=IC50 result_value="> 10000 nM"
smiles_notation=Cn1c(-c2cccc(Cl)c2)cc2c(Cl)nc(N)nc21 study_target="Bifunctional dihydrofolate reductase-thymidylate synthase (Toxoplasma gondii)" value_kind=IC50 result_value="> 10000 nM"
smiles_notation=Cn1c(-c2cccc(Cl)c2)cc2c(N)nc(N)nc21 study_target="Bifunctional dihydrofolate reductase-thymidylate synthase (Toxoplasma gondii)" value_kind=IC50 result_value="> 10000 nM"
smiles_notation=Cn1cc(-c2c(N)nc(N)nc2C2CC2)c2ccccc21 study_target="Bifunctional dihydrofolate reductase-thymidylate synthase (Toxoplasma gondii)" value_kind=IC50 result_value="460 nM"
smiles_notation=Cc1nc(N)nc(N)c1CN1CCN(c2cccc(-c3ccccc3)c2)CC1 study_target="Bifunctional dihydrofolate reductase-thymidylate synthase (Toxoplasma gondii)" value_kind=IC50 result_value="1100 nM"
smiles_notation=Nc1ncc(CN2CCN(c3cc(Cl)ccc3OCc3cccc(C(F)(F)F)c3)CC2)c(N)n1 study_target="Bifunctional dihydrofolate reductase-thymidylate synthase (Toxoplasma gondii)" value_kind=IC50 result_value="950 nM"

---

Examples of compounds with documented pIC50 follow.
study-target: Dihydrofolate reductase (Homo sapiens)
Sequence (P00374 whole entry): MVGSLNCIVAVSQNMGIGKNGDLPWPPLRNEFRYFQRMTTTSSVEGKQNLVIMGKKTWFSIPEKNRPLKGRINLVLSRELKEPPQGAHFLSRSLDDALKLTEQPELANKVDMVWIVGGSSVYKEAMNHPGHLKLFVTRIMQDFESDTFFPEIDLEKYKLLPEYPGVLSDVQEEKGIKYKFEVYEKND
procedure-summary: Inhibition of recombinant human DHFR expressed in Escherichia coli preincubated for 15 mins followed by addition of DHF as substrate and NADPH measured after 60 mins by resazurin/diaphorase coupled assay
pIC50: −log10 of the molar value.
value-kind: pIC50

smiles_notation=Cc1nc(N)nc(N)c1CN1CCN(c2cc(Cl)ccc2-c2ccccn2)CC1 study_target="Dihydrofolate reductase (Homo sapiens)" value_kind=pIC50 relation_operator== result_value=5.68
smiles_notation=Cc1nc(N)nc(N)c1CN1CCN(c2cccc(-c3cccc(C#N)c3)c2)CC1 study_target="Dihydrofolate reductase (Homo sapiens)" value_kind=pIC50 relation_operator== result_value=6.04
smiles_notation=Nc1nc(Cl)c2cc(-c3cccc(Cl)c3)[nH]c2n1 study_target="Dihydrofolate reductase (Homo sapiens)" value_kind=pIC50 relation_operator== result_value=5.38
smiles_notation=Cn1c(-c2cccc(Cl)c2)cc2c(Cl)nc(N)nc21 study_target="Dihydrofolate reductase (Homo sapiens)" value_kind=pIC50 relation_operator=< result_value=5.00
smiles_notation=Nc1ncc(CN2CCCN(C(=O)c3cccc(C(F)(F)F)c3)CC2)c(N)n1 study_target="Dihydrofolate reductase (Homo sapiens)" value_kind=pIC50 relation_operator=< result_value=5.00
smiles_notation=Cn1cc(-c2c(N)nc(N)nc2C2CC2)c2ccccc21 study_target="Dihydrofolate reductase (Homo sapiens)" value_kind=pIC50 relation_operator== result_value=5.55
smiles_notation=Nc1ncc(Cn2cc(-c3cccc(C(F)(F)F)c3)c3ccccc32)c(N)n1 study_target="Dihydrofolate reductase (Homo sapiens)" value_kind=pIC50 relation_operator=< result_value=5.00
smiles_notation=Nc1ncc(Cn2cc(-c3cccc(Cl)c3)c3cccnc32)c(N)n1 study_target="Dihydrofolate reductase (Homo sapiens)" value_kind=pIC50 relation_operator=< result_value=5.00
smiles_notation=Cc1nc(N)nc(N)c1C(=O)N1CCN(c2cccc(-c3ccccc3)c2)CC1 study_target="Dihydrofolate reductase (Homo sapiens)" value_kind=pIC50 relation_operator=< result_value=5.00
smiles_notation=Nc1ncc(CN2CCN(c3cccc(C(F)(F)F)c3)CC2)c(N)n1 study_target="Dihydrofolate reductase (Homo sapiens)" value_kind=pIC50 relation_operator== result_value=5.04
smiles_notation=Nc1ncc(Cn2cc(-c3ccc(F)c(F)c3)c3cnccc32)c(N)n1 study_target="Dihydrofolate reductase (Homo sapiens)" value_kind=pIC50 relation_operator=< result_value=5.00
